Where these numbers come from: patent US12209087B2

Consider the following molecules; for each one, report its IC50.
# SYSTEM_UNDER_TEST: full length AKT E17K (Homo sapiens, UniProt P31749, E17K)
# Construct: host or cells: HEK-293 (ATCC CRL-1573)
# Sequence (P31749 whole entry E17K): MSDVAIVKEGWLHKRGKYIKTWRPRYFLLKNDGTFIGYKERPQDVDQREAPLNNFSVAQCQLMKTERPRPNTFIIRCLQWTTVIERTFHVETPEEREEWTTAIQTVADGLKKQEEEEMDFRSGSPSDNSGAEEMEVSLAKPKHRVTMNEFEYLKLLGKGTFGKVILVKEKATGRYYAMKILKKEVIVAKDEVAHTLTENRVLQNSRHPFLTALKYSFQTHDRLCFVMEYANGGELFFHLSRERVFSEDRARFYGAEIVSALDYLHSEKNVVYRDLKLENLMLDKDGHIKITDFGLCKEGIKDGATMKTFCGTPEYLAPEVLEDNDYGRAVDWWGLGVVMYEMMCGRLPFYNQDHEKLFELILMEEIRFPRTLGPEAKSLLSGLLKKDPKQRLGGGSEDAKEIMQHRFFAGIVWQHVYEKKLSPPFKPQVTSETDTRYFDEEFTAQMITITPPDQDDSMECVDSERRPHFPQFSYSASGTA
# PROTOCOL_SUMMARY: NanoBRET Target Engagement (TE) Assay
# Assay type: cell-based
# MEASUREMENT_PARAMETERS: competitive tracer displacement in living cells, read-out: AKT1 E17K IC50

Solved cases below.
1. N#Cc1cccnc1OC1CCN(Cc2ccc(-n3c(-c4cccnc4N)nc4cccnc43)cc2)CC1 ... 0.6 to 10 µM
2. N#Cc1cnnc(NCc2ccc(-n3c(-c4cccnc4N)nc4cccnc43)cc2)c1 ... 0.6 to 10 µM
3. N#Cc1cc(C(=O)NC2CCN(Cc3ccc(-n4c(-c5cccnc5N)nc5cccnc54)cc3)CC2)ncn1 ... 0.6 to 10 µM

# batch size: 2; output IC50 per entry
1. N#Cc1cccc(N2CCN(Cc3ccc(-n4c(-c5cccnc5N)nc5cccnc54)cc3)CC2)n1
2. N#Cc1ccnc(N2CCN(Cc3ccc(-n4c(-c5cccnc5N)nc5ccc(N6CCCNC(=O)C6)nc54)cc3)CC2)n1

1. 0.6 to 10 µM
2. 0.015 to 0.06 µM

# batch size: 3; output IC50 per entry
1. N#Cc1nccc(N2CCCN(Cc3ccc(-n4c(-c5cccnc5N)nc5ccc(-c6ccccc6)nc54)cc3)CC2)n1
2. N#Cc1ccnc(N2CCN(Cc3ccc(-n4c(-c5cccnc5N)nc5ccc(-c6cccc(Cl)c6)nc54)cc3)CC2)n1
3. N#Cc1cnccc1C(=O)N1CCN(Cc2ccc(-n3c(-c4cccnc4N)nc4ccc(-c5ccccc5)nc43)cc2)CC1

["0.015 to 0.06 µM", "0.06 to 0.6 µM", "0.6 to 10 µM"]

# batch size: 6; output IC50 per entry
1. N#Cc1nccc(C(=O)NC2C3CCC2CN(Cc2ccc(-n4c(-c5cccnc5N)nc5ccc(-c6ccccc6)nc54)cc2)C3)n1 (centres unmarked)
2. N#Cc1ncnc(N2CCCN(Cc3ccc(-n4c(-c5cccnc5N)nc5ccc(-c6ccccc6)nc54)cc3)CC2)n1
3. N#Cc1cc(NC2CCN(Cc3ccc(-n4c(-c5cccnc5N)nc5ccc(-c6ccccc6)nc54)cc3)CC2)ncn1
4. N#Cc1ccnc(N2CCN(Cc3ccc(-n4c(-c5cccnc5N)nc5ccc(-c6ccccc6F)nc54)cc3)CC2)n1
5. N#Cc1ccnc(N2C[C@H]3C[C@@H]2CN3Cc2ccc(-n3c(-c4cccnc4N)nc4ccc(-c5ccccc5)nc43)cc2)n1
6. N#Cc1ccc(N2CCN(Cc3ccc(-n4c(-c5cccnc5N)nc5ccc(-c6ccccc6)nc54)cc3)CC2)cn1

0.015 to 0.06 µM
0.015 to 0.06 µM
< 0.015 µM
0.015 to 0.06 µM
0.015 to 0.06 µM
0.06 to 0.6 µM
